# System: PPARg DBDmut:RXRa IVT, anti-PPARg (DBD mutation: PPARg1 K132A/R137A, NR concentration 270 nM, RXRa partner concentration 90 nM)
# Assay Overview: PBM binding z-score (relative to random genomic background probes); higher = stronger binding; sequences stand for … in GC…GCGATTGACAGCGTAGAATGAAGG
The threshold is inclusive: PBM binding z-score of exactly 0.5 counts as 1.0; values below receive 0.0.

Check if PBM binding z-score >= 0.5 (inclusive). Item: `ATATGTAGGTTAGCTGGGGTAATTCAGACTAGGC`
1.0

Check if PBM binding z-score >= 0.5 (inclusive). Item: `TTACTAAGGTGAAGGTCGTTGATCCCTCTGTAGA`
1.0

Check if PBM binding z-score >= 0.5 (inclusive). Item: `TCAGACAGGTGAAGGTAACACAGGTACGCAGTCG`
0.0

Check if PBM binding z-score >= 0.5 (inclusive). Item: `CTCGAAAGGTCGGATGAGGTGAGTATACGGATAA`
1.0

Check if PBM binding z-score >= 0.5 (inclusive). Item: `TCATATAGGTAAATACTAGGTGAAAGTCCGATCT`
1.0

Check if PBM binding z-score >= 0.5 (inclusive). Item: `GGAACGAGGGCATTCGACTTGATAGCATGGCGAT`
0.0

Check if PBM binding z-score >= 0.5 (inclusive). Item: `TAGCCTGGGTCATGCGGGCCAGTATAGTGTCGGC`
0.0

Check if PBM binding z-score >= 0.5 (inclusive). Item: `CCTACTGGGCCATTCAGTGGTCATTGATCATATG`
0.0

Check if PBM binding z-score >= 0.5 (inclusive). Item: `AGTCAAAGTTTAGGACGAGGTAACGTAAAGCACG`
0.0

Check if PBM binding z-score >= 0.5 (inclusive). Item: `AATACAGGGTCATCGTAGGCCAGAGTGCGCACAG`
1.0

Check if PBM binding z-score >= 0.5 (inclusive). Item: `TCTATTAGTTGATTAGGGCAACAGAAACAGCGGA`
1.0

Check if PBM binding z-score >= 0.5 (inclusive). Item: `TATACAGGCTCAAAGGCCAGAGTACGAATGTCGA`
0.0

###

# System: PXR homodimer (NR concentration 270 nM)
# Assay Overview: PBM binding z-score (relative to random genomic background probes); higher = stronger binding; sequences stand for … in GC…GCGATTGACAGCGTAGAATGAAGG
Provide the reported PBM binding z-score of each item.
Enter the number alone.

Which measured PBM binding z-score value corresponds to `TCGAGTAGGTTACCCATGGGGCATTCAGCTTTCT` ?
-0.728

Which measured PBM binding z-score value corresponds to `TCTTGTAGATCAAAGGTTAAGTAAGCCGAAGCCT` ?
0.0156

Which measured PBM binding z-score value corresponds to `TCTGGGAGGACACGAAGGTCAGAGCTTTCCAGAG` ?
0.818

Which measured PBM binding z-score value corresponds to `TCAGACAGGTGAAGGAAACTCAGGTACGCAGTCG` ?
0.224

Which measured PBM binding z-score value corresponds to `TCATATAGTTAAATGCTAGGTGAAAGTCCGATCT` ?
0.356

Which measured PBM binding z-score value corresponds to `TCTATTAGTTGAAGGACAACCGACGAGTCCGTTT` ?
1.09

Which measured PBM binding z-score value corresponds to `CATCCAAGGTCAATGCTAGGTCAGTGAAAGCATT` ?
1.76

Which measured PBM binding z-score value corresponds to `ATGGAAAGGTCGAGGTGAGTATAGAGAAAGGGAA` ?
1.05

Which measured PBM binding z-score value corresponds to `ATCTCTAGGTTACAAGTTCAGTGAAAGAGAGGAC` ?
2.41

Which measured PBM binding z-score value corresponds to `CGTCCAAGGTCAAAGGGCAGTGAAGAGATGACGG` ?
1.24

Which measured PBM binding z-score value corresponds to `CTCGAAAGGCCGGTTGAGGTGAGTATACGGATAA` ?
-0.38

Which measured PBM binding z-score value corresponds to `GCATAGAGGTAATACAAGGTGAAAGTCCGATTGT` ?
-0.217

###

# System: PPARg:RXRa (NR concentration 180 nM, RXRa partner concentration 90 nM)
# Assay Overview: PBM binding z-score (relative to random genomic background probes); higher = stronger binding; sequences stand for … in GC…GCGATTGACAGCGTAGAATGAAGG
Provide the reported PBM binding z-score of each item.
Enter the number alone.

Which measured PBM binding z-score value corresponds to `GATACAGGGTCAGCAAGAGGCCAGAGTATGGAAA` ?
3.55

Which measured PBM binding z-score value corresponds to `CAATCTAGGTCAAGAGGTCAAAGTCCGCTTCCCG` ?
10.2

Which measured PBM binding z-score value corresponds to `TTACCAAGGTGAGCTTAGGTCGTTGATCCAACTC` ?
-0.0698

Which measured PBM binding z-score value corresponds to `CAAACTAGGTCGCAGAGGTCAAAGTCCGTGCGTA` ?
7.46

Which measured PBM binding z-score value corresponds to `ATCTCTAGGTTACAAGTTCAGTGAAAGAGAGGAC` ?
2.72

Which measured PBM binding z-score value corresponds to `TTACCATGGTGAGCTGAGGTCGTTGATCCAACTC` ?
-0.38

Which measured PBM binding z-score value corresponds to `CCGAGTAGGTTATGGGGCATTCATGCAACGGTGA` ?
3.65

Which measured PBM binding z-score value corresponds to `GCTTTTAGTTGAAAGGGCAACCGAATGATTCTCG` ?
2.24

Which measured PBM binding z-score value corresponds to `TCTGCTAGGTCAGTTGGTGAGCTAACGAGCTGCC` ?
-0.0831

Which measured PBM binding z-score value corresponds to `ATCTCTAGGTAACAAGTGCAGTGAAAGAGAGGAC` ?
1.07

Which measured PBM binding z-score value corresponds to `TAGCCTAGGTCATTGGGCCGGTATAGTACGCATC` ?
2.46

Which measured PBM binding z-score value corresponds to `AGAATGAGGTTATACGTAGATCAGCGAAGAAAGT` ?
1.91

Which measured PBM binding z-score value corresponds to `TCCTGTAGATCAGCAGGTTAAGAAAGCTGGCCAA` ?
-0.289

Which measured PBM binding z-score value corresponds to `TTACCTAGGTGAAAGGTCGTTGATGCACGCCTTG` ?
10.4

Which measured PBM binding z-score value corresponds to `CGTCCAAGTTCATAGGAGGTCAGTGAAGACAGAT` ?
1.6

Which measured PBM binding z-score value corresponds to `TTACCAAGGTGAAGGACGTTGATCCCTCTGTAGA` ?
0.633

Which measured PBM binding z-score value corresponds to `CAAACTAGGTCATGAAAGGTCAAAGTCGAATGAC` ?
9.71

Which measured PBM binding z-score value corresponds to `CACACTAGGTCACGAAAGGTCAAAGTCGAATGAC` ?
9.73

Which measured PBM binding z-score value corresponds to `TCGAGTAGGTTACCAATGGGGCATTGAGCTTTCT` ?
0.256

Which measured PBM binding z-score value corresponds to `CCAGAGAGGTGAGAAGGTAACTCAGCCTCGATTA` ?
0.83

Which measured PBM binding z-score value corresponds to `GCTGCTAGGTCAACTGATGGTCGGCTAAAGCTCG` ?
2.39

Which measured PBM binding z-score value corresponds to `GCGTGTAGATCAAGGTTAAGAAAGACTAAGCTAA` ?
0.0821

Which measured PBM binding z-score value corresponds to `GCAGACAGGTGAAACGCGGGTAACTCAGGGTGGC` ?
0.342

Which measured PBM binding z-score value corresponds to `TGAATGAGGTTAAAGATCAAGGAACGTGGCGTCG` ?
6.53

Which measured PBM binding z-score value corresponds to `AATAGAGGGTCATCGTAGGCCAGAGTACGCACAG` ?
5.46

Which measured PBM binding z-score value corresponds to `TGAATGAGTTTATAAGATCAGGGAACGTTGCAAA` ?
0.119

Which measured PBM binding z-score value corresponds to `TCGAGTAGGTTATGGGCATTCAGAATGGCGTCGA` ?
0.399

Which measured PBM binding z-score value corresponds to `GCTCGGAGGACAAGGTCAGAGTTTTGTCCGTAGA` ?
0.985

Which measured PBM binding z-score value corresponds to `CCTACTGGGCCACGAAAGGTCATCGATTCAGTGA` ?
5.36

Which measured PBM binding z-score value corresponds to `TATACAGGGTCAAAGGCCAGAGTTCGAATGTCGA` ?
8.48

Which measured PBM binding z-score value corresponds to `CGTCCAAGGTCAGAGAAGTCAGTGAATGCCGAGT` ?
1.89

Which measured PBM binding z-score value corresponds to `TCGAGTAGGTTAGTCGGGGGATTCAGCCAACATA` ?
0.0949

Which measured PBM binding z-score value corresponds to `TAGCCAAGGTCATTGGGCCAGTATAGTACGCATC` ?
6

Which measured PBM binding z-score value corresponds to `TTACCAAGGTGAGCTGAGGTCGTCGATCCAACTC` ?
0.26

Which measured PBM binding z-score value corresponds to `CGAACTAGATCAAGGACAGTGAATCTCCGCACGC` ?
0.599

Which measured PBM binding z-score value corresponds to `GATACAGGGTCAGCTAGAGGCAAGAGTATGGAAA` ?
3.78

Which measured PBM binding z-score value corresponds to `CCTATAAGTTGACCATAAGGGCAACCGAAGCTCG` ?
0.632

Which measured PBM binding z-score value corresponds to `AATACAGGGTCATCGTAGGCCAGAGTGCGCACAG` ?
6.7

Which measured PBM binding z-score value corresponds to `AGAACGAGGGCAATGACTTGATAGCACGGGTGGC` ?
1.71

Which measured PBM binding z-score value corresponds to `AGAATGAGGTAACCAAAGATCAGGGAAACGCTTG` ?
1.15

Which measured PBM binding z-score value corresponds to `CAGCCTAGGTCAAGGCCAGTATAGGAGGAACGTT` ?
2.15

Which measured PBM binding z-score value corresponds to `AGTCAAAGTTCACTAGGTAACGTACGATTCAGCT` ?
7.47

Which measured PBM binding z-score value corresponds to `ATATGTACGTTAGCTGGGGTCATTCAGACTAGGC` ?
1.74

Which measured PBM binding z-score value corresponds to `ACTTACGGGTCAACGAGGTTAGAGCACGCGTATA` ?
5.52

Which measured PBM binding z-score value corresponds to `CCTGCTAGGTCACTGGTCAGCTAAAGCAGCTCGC` ?
3.55

Which measured PBM binding z-score value corresponds to `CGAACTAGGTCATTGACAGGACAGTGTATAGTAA` ?
7.66

Which measured PBM binding z-score value corresponds to `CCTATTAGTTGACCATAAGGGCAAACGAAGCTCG` ?
0.426

Which measured PBM binding z-score value corresponds to `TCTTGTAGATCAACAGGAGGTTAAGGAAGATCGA` ?
0.0349

Which measured PBM binding z-score value corresponds to `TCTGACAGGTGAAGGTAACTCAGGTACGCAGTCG` ?
0.602

Which measured PBM binding z-score value corresponds to `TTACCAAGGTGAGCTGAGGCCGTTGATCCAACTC` ?
-0.296

Which measured PBM binding z-score value corresponds to `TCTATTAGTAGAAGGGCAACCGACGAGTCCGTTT` ?
0.23
